assay: Secondary Assay for lipid storage modulators: Cytotoxcity for probe SAR round 2; details: Drosophila S3 cells viability, CellTiter-Glo ATP luminescence, 24 h; series mostly up to 46.1 µM
Inconclusive results are not listed. Active and inactive are the calls of the source. Calls follow the shape of the dose curve; as a rule, active = well fitted inhibition curve with a large enough effect; inconclusive = small, poorly fitted or top-dose-only effect; inactive = flat fitted curve, though single readings scatter.
// allowed return values: 1.0 for active, 0.0 for inactive

Query: Kindly provide the recorded test outcome for the following molecule: "CCOC(=O)C1CCN(C(=O)C(C)(C)NC(=O)Nc2ccc3ccccc3c2)CC1"
Response: 0.0
